Cited source: patent US5061794A

Experiment: concentration in blood of mice after subcutaneous administration
Assay type: in vivo, mice (ddY type, male)
Conditions: mouse, sc, 20 mg/kg, 120 min
Catalogue of concentration at 2 h values
Numeric only. Scale: ng/mL

# compound, measured.number
records = [
    ("CC(C)(O/N=C(\\C(=O)N[C@@H]1C(=O)N2C(C(=O)[O-])=C(C[n+]3ccccc3)CS[C@H]12)c1csc(N)n1)C(=O)O [ceftazidime, reference compound]", 200),
]

Next:
Per the records, this compound ( CC(C)(ON=C(C(=O)NC1C(=O)N2C(C(=O)O)=C(CSc3nc(C(=O)O)c(-c4ccc(O)c(O)c4)s3)CSC12)c1csc(N)n1)C(=O)O (centres unmarked) [Ex. 50] ) has concentration at 2 h equal to 3100

* * *

Test system: E. cloacae 963
Assay: in vitro antibacterial activity, agar plate dilution method (MIC)
Assay type: cell-based
Conditions: Enterobacter cloacae, 963, 16 h, read-out: Minimum Inhibitory Concentration (MIC), E. cloacae 963; 10^6 CFU/ml
Label key: fulfilled means MIC under 0.2 µg/mL; not fulfilled means MIC of 0.2 µg/mL or more.

# count of solved cases: 6
# compound, discrete.label
records = [
    ("Nc1nc(C(=NOC2(C(=O)O)CC2)C(=O)NC2C(=O)N3C(C(=O)O)=C(CSc4nc(-c5ccc(O)c(O)c5)c(CC(=O)O)s4)CSC23)cs1 (centres unmarked)", "not fulfilled"),
    ("CO/N=C(\\C(=O)N[C@@H]1C(=O)N2C(C(=O)O)=C(CSc3ncc(-c4ccccc4)o3)CS[C@H]12)c1csc(N)n1 [compound 21, reference compound]", "not fulfilled"),
    ("Nc1nc(/C(=N/OC(C(=O)O)c2ccc(O)c(O)c2)C(=O)N[C@@H]2C(=O)N3C(C(=O)O)=C(CSc4ncc(-c5ccc(O)c(O)c5)o4)CS[C@H]23)cs1 (some centres unmarked)", "not fulfilled"),
    ("Nc1nc(C(=NOC(C(=O)O)c2ccc(O)c(O)c2)C(=O)NC2C(=O)N3C(C(=O)O)=C(CSc4nnc(-c5ccc(O)c(O)c5)s4)CSC23)cs1 (single isomer, unassigned)", "fulfilled"),
    ("Nc1nc(C(=NOC2(C(=O)O)CC2)C(=O)NC2C(=O)N3C(C(=O)O)=C(CSc4nc(-c5ccc(O)c(O)c5)cs4)CSC23)cs1 (centres unmarked)", "fulfilled"),
    ("CO/N=C(\\C(=O)N[C@@H]1C(=O)N2C(C(=O)O)=C(CSc3nc(-c4ccccc4)cs3)CS[C@H]12)c1csc(N)n1 [compound 9, reference compound]", "not fulfilled"),
]

query: Identify whether the compound Nc1nc(/C(=N/OCc2ccccc2CC(=O)O)C(=O)N[C@@H]2C(=O)N3C(C(=O)O)=C(CSc4nnc(-c5ccc(O)c(O)c5)o4)CS[C@H]23)cs1 records MIC below 0.2 µg/mL.
result: fulfilled

query: Check if MIC falls below 0.2 µg/mL for CO/N=C(\C(=O)N[C@@H]1C(=O)N2C(C(=O)O)=C(CSc3nc(-c4ccc(O)cc4)c(CC(=O)O)s3)CS[C@H]12)c1csc(N)n1 [compound 17, reference compound] .
result: not fulfilled

query: Please determine if CC(C)(O/N=C(\C(=O)N[C@@H]1C(=O)N2C(C(=O)O)=C(CSc3nc(C(=O)O)c(-c4ccccc4)s3)CS[C@H]12)c1csc(N)n1)C(=O)O [compound 14, reference compound] is below 0.2 µg/mL in terms of MIC.
result: not fulfilled

query: Criterion: MIC strictly below 0.2 µg/mL. Is it met by Nc1nc(C(=NOC(C(=O)O)c2ccccc2)C(=O)NC2C(=O)N3C(C(=O)O)=C(CSc4nc(C(=O)O)c(-c5ccc(O)c(O)c5)s4)CSC23)cs1 (single isomer, unassigned) ?
result: fulfilled
